Test system: mtOXPHOS transcripts
Assay type: cell-based, mouse
Conditions: composite Z-score vs DMSO; Conc 20 μM
Classes are defined on mitoOX with ranges lower bin = under -0.7, middle bin = from -0.7 up to 0.2, upper bin = 0.2 and over

Worked set:
# input Tag the class for O=C(c1ccccc1)c1ccc2n1CCC2C(=O)O (stereo not drawn)
# output middle bin

# input Now consider C[C@]12CCC3C(CC[C@H]4C[C@H](O)CC[C@]34C)C1CC[C@@H]2O (stereo partly drawn) [epiandrostanediol] .
# output middle bin

New cases:
# input Tag the class for "CCCCCC(=O)Cc1cc(O)cc(O)c1C(=O)Oc1cc(CC(=O)CCCCC)c(C(=O)O)c(OC)c1"
# output middle bin

# input Now consider "NC[C@@H]1O[C@H](O[C@H]2[C@@H](O)[C@H](O[C@@H]3[C@@H](O)[C@H](N)C[C@H](N)[C@H]3O[C@H]3O[C@H](CN)[C@@H](O)[C@H](O)[C@H]3N)O[C@@H]2CO)[C@H](N)[C@@H](O)[C@@H]1O" .
# output upper bin

# input Now consider NCCc1ccc(S(=O)(=O)F)cc1 [4-aminoethylbenzenesulfonyl fluoride] .
# output middle bin

###

System: cellular dehydrogenase activity | Read-out: MTT
Give bare numbers.

Below is a list of compounds. For each, state its recorded MTT.
1. CC(=O)[O-].CC(=O)[O-].[Cd+2] [cadmium acetate]
2. C[C@@H]1CC[C@@]23CCC4(C)[C@@](C=CC5[C@@]6(C)CC[C@H](O)C(C)(C)C6CC[C@]54C)(OC2=O)C3[C@H]1C (stereo partly shown) [dehydro (11,12)ursolic acid lactone]
3. Cc1cc(C2CCCCC2)n(O)c(=O)c1.NCCO
4. C[C@@H]1[C@H](O)[C@@H](C)/C=C/C=C/C=C/C=C/C=C/C=C/C=C/[C@H](O[C@@H]2O[C@H](C)[C@@H](O)[C@H](N)[C@@H]2O)C[C@@H]2O[C@](O)(C[C@@H](O)C[C@@H](O)[C@H](O)CC[C@@H](O)C[C@@H](O)CC(=O)O[C@H]1C)C[C@H](O)[C@H]2C(=O)O

# output
["−1.896", 0.402, "−2.239", "−0.790"]

###

System: mtOXPHOS transcripts
Type: cell-based, mouse
Settings: composite Z-score vs mock-treated (DMSO) wells; Conc 20 μM
measuredMetric: mitoOX
Give bare numbers.

See these solved cases before continuing.
# input Field: mitoOX (mtOXPHOS transcripts). Entry: CC(=O)Oc1cc(-c2coc3cc(OC(C)=O)c(OC(C)=O)c(OC(C)=O)c3c2=O)cc(OC(C)=O)c1OC(C)=O [iriginol hexaaceatate]
# output 0.938

# input Now consider COc1cc2ccc(=O)oc2c2ccoc12 [sphondin] .
# output −0.666

# input Now consider CC(=O)OC1CC2C(C)(C)[C@@H](O)CC[C@]2(C)C2CC[C@]3(C)[C@H](c4ccoc4)OC(=O)[C@H]4O[C@]43[C@]12C (stereo partly drawn) [3beta-hydroxydeoxodihydrogedunin] .
# output −0.302

# input Now consider C[C@@H]([C@H]1OC(C)(C)[C@@H](O)[C@H]1O)[C@@H]1CC[C@]2(C)C3=CC[C@H]4C(C)(C)C(=O)CC[C@]4(C)[C@H]3CC[C@@]12C [odoratone] .
# output −0.873

# input Now consider Cc1cc(O)c(C=O)c2c1C(=O)Oc1c(C)c(O)c3c(c1O2)C(O)OC3=O (stereo not shown) [norstictic acid] .
# output −0.148

Below is a list of compounds. For each, state its recorded mitoOX.
1. COc1cc(O)c2c(=O)cc(C)oc2c1CC=C(C)C [heteropeucenin, methyl ether]
2. Cc1cc(=O)c2c(O)cc(O)c(C)c2o1 [isoeugenitol]
3. COc1ccc2c(c1OC)OC[C@@H](c1ccc(OC)c(OC)c1OC)C2 [duartin, dimethyl ether]
4. CCOC(=O)c1oc2c(OC)c(O)cc(O)c2c(=O)c1-c1cc(OC)c(OC)c(OC)c1

# output
1. 0.217
2. −0.680
3. −0.571
4. −1.218
